Value source: ChEMBL document CHEMBL5727557

measurement_target: Tyrosine-protein phosphatase non-receptor type 11 (Homo sapiens, UniProt Q06124)
Sequence (Q06124 whole entry): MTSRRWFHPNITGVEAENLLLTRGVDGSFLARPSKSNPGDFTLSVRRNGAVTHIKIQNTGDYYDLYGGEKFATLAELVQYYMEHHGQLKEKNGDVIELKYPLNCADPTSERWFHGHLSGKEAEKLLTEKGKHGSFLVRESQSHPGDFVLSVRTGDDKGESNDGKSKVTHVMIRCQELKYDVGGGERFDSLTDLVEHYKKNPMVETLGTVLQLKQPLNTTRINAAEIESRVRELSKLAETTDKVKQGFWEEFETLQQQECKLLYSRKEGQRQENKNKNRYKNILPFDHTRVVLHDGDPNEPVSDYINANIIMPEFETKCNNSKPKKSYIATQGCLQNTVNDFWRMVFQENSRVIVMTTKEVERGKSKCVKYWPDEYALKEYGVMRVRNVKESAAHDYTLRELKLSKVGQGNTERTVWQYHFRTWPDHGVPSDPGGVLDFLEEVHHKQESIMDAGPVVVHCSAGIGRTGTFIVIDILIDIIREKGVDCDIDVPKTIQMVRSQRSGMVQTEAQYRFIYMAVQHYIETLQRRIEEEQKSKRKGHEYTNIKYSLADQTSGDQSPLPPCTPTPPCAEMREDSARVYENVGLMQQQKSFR
assay_protocol: SHP2 Phosphatase Assay: IC50 values were determined at room temperature in 384-well black polystyrene plate, using a final reaction volume of 15 μl and the following assay buffer conditions: 60 mM Hepes (pH=7.2), 75 mM NaCl, 75 mM KCl, and 1 mM EDTA, 0.05% P-20, 5 mM dithiothreitol (DTT). Full length SHP2 enzyme (diluted to 0.1 nM in reaction buffer) were co-incubated with 1 uM IRS-1 peptide and 0.01 nM to 10 μM compounds of the disclosure for 60 min. The surrogate substrate DiFMUP (5 μL, […]) was added, and incubated at rt for 60 min. The reaction was then quenched by the addition of 5 μL of a 40 μM solution of bpV(Phen). The fluorescence signal was monitored using a microplate reader (Envision, Perkin-Elmer) using excitation and emission wavelengths of 360 nm and 450 nm, respectively. The inhibitor dose-response curves were analyzed using normalized IC50 regression curve fitting with control-based normalization.
test_readout: IC50

[
  {
    "smiles_entry": "CC1(CN)CCN(c2ncc(Sc3cccc(NC(=O)c4c(O)nc5cnccn5c4=O)c3Cl)[nH]c2=O)CC1",
    "recorded_result": "< 50 nM"
  }
]
